I'd be grateful if you could share measured GI50 for these entries.
test system: OVCAR-5; test: NCI tumour cell line growth inhibition, 48 h
Activity calls are given as the source filed them. No stated cut-off is given here; in the data, active = GI50 up to about 1.1 µM and inactive = higher.

Dear colleague, I am looking for the recorded GI50 of the following compound: COC(=O)C1=C(C(=O)OC)C2(/N=C(\Nc3ccccc3)c3ccccc3)N(c3ccc(OC)cc3)CC(c3ccccc3)N2O1 (stereo not drawn)
> 100 µM (inactive)

Endpoint output: GI50 of `O=C1Nc2ccccc2C(=O)/C1=C/NC(=S)NC1CCCCC1` . Value?
> 100 µM (inactive)

Would you mind telling me what GI50 value was observed for `CCOC(=O)C(C(=O)OCC)c1ccc([N+](=O)[O-])o1` ?
18.2 µM (inactive)

Recorded GI50 for `N=C(N)SCCN1CCCCC1` , please?
86.1 µM (inactive)

Any idea what its GI50 is? The compound is O=C1Oc2ccccc2C1C/C(=N\Nc1ccccc1)c1ccccc1O (stereo not drawn)
> 100 µM (inactive)

Entry under review: `COc1ccc(/C=C/c2cc(OC)c(OC)c(OC)c2)cc1` . Reported GI50?
1.85 µM (inactive)

Give the measured GI50 of O=C(CC(O)(C(F)(F)F)C(F)(F)F)C(c1ccccc1)C(O)(C(F)(F)F)C(F)(F)F (stereo not drawn) .
> 100 µM (inactive)

May I ask what GI50 has been recorded for CC1CCC[P+](Cc2ccccc2)(c2ccccc2)CC1 (stereo not drawn) ?
> 100 µM (inactive)

Tell me the measured GI50 of `CN(CCN(C)C(=S)NN)C(=S)NN` , please.
> 100 µM (inactive)

Dear colleague, I am looking for the recorded GI50 of the following compound: `O=C1NC(=S)NC(=O)C1=Cc1ccc(-c2ccccc2)cc1`
> 100 µM (inactive)

Consider the compound COc1cc(C2c3cc4c(cc3[C@@H](Nc3ccc(F)cc3)C3COC[C@H]23)OCO4)cc(OC)c1O (stereo partly drawn) and give its measured GI50.
3.62 µM (inactive)

Data request, read-out GI50, for `ClC[Si]12OCCN(CCO1)CCO2`
> 100 µM (inactive)

// returns reported GI50 for input CC(=O)CC12NC(=O)N(C)N=C1N(C)C(=O)N(C)C2=O (stereo not drawn)
> 100 µM (inactive)

Which value of GI50 has been reported for `COc1cc(OC)c(OC)cc1/C=C/c1cc[n+](C)c2ccccc12` in the records?
> 100 µM (inactive)

GI50 lookup needed for CC(O)CN1c2ccccc2Sc2ccc(Cl)cc21 (stereo not drawn) , thanks.
> 10 µM (inactive)

Report GI50 for CCN(CC)/[N+]([O-])=N/OCC(C)O (stereo not drawn) please.
> 100 µM (inactive)

Could you tell me which GI50 is on file for `Cn1c(=O)nc2n(-c3cc(Cl)ccc3Cl)c3ccccc3nc-2c1=O` ?
13 µM (inactive)

Suppose we examine the compound N#CC1=C(N)OC2=C(CCCc3ccc([N+](=O)[O-])cc32)C1c1ccc(Cl)cc1 (stereo not drawn) ; what GI50 value has been reported?
16.6 µM (inactive)

Would you mind telling me what GI50 value was observed for `CCN(CC)CC[n+]1ccc2c(C)c3[nH]c4ccccc4c3c(C)c2c1` ?
1.61 µM (inactive)

What does the record list as GI50 for `CC1(C)CC(=O)c2[nH]c3ccccc3c2CC(=O)NCCc2cn1cn2` ?
> 100 µM (inactive)

Which GI50 is reported for this compound? `CCOC(=O)Nn1c(CC#N)nnc1Cc1ccccc1`
> 100 µM (inactive)

Dear colleague, I am looking for the recorded GI50 of the following compound: `N#Cc1nc(C#N)n(S(=O)(=O)c2ccccc2)c1NS(=O)(=O)c1ccccc1`
> 100 µM (inactive)

May I ask what GI50 has been recorded for `CC1CCN(c2cc(-c3cc4ccccc4o3)oc(=O)c2C#N)CC1` ?
> 100 µM (inactive)

Values were extracted from ChEMBL document CHEMBL1201862.
